system name: T1, human GITR (human, UniProt Q9Y5U5 26-241)
T1 sequence: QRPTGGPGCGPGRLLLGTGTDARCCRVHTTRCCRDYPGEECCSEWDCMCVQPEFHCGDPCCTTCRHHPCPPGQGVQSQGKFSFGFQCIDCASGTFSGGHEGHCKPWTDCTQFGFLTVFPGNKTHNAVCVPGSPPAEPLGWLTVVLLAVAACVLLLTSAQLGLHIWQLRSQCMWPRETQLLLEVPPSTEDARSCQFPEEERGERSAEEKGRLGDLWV
test name: cell-based or functional assay
Parameter: Proliferation EC50. Scope: all listed entries.
Return type: number; implicit unit µg/mL.

Answered cases to consult:
41G5v3 (antibody, human IgG1, kappa, V domains shown, Engineered variant; also called Ab57; SS-16953) VH: QVQLVESGGGVVQPGRSLRLSCAASGFTFSSYGMHWVRQAPGKGLEWVAVIWYPGSNKYYADTVKGRFTISRDNSKNTLYLQMNSLRAEDTAVYYCARGGELGRYYYYGMDVWGQGTTVTVSS VL: DIQMTQSPSSLSASVGDRVTVTCRASQGIRNDLGWYQQKPGKAPKRLIYAASSLQSGVPSRFSGSGSGTEFTLTISSLQPEDFATYYCLQHNNYPWTFGQGTKVDIKR | 0.007
5H7v17 (antibody, human IgG1, kappa, V domains shown) VH: QVQLQESGPGLVKPSETLSLTCTVSGGSISSGGYFWSWIRQPPGKGLEWIGYIYYSGTTYYNPSLKSRVTISIDTSKNQFSLKLSSVTAADTAVYYCARDLFYYDTSGPRGFDPWGQGTLVTVSS VL: EIVLTQSPGTLSLSPGERATLSCRASQTVSSNYLAWYQQKPGQAPRLLIYGSSTRATGIPDRFSGSGSGTDFTLTISRLEPEDFAVYYCQQYDTSPWTFGQGTKVEIKR | 0.024
5H7v18 (antibody, human IgG1, kappa, V domains shown, Engineered variant; also called Ab36; SS-16928) VH: QVQLQESGPGLVKPSETLSLTCTVSGGSISSGGYFWSWIRQPPGKGLEWIGYIYYSGTTYYNPSLKSRVTISIDTSKNQFSLKLSSVTAADTAVYYCARDLFYYDSSGPRGFEPWGQGTLVTVSS VL: EIVLTQSPGTLSLSPGERATLSCRASQTVSSNYLAWYQQKPGQAPRLLIYGSSTRATGIPDRFSGSGSGTDFTLTISRLEPEDFAVYYCQQYDTSPWTFGQGTKVEIKR | 0.012
7A10v3 (antibody, human IgG1, kappa, V domains shown, Engineered variant; also called Ab41; SS-16939) VH: QVQLVESGGGVVQPGRSLRLSCAASGFTFSSYGMHWVRQAPGKGLEWMAVIWYVGSNKYYAESVKGRFTISRDNSKNTLYLQMNSLRAEDTAVYYCARGGELGRDYYSGMDVWGQGTTVTVSS VL: DIQMTQSPSSLSASVGDRVTITCRASQGIRNDLGWYQQKPGKAPKRLIYAASSLQSGVPSRFSGSGSGTEFTLTISSLQPEDFATYYCQQHNSYPWTFGQGTKVEIKR | 0.046

Next binder, Proliferation EC50 to be filled in.
The measured Proliferation EC50 associated with 9H6v2 (antibody, human IgG1, kappa, V domains shown, Engineered variant; also called Ab45; SS-16944) VH: QVQLVESGGGVVQPGRSLRLSCVASGFTFSSYGMHWIRQAPGKGLEWVAVIWYEGSNKYYADSVKGRFTISRDNSKNTLYLQMNSLRAEDTAVYYCARGGRLGKDYYSGMDVWGQGTTVTVSS VL: DIQMTQSPSSLSASVGDRVTITCRASQGIRNDLGWYQQKPGKAPKLLIYATSSLQSGVPSRFSGSGSGTEFTLTISSLQPEDFATYYCLQHNTYPWTFGQGTKVEIKR reads 0.019
